biological target: HIV-1 APV-6 envelope protein (Env) on pseudovirus (HIV-1 isolate APV-6); assay: cell-based or functional assay
READOUT_TYPE: IC50 (µg/mL), pseudovirus neutralization
Value expressed in µg/mL; do not type the unit.

1496_C09 (PG9) (TCN-109) (antibody, V domains shown) VH: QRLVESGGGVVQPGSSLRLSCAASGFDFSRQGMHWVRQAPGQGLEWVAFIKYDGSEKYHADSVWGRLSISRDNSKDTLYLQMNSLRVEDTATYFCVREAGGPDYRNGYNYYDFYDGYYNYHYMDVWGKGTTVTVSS VL: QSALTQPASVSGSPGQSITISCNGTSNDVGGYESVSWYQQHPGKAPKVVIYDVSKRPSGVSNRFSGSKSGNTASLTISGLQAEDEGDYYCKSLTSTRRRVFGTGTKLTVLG :: 0.09

Consider the additional binder presented here.
**Q:** Find the recorded IC50 (µg/mL), pseudovirus neutralization belonging to 1456_P20 (PG20) (antibody, human IgG1, kappa, V domains shown) VH: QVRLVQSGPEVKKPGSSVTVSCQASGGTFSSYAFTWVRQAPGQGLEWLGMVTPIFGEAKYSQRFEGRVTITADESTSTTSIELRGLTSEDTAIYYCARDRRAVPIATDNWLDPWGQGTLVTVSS VL: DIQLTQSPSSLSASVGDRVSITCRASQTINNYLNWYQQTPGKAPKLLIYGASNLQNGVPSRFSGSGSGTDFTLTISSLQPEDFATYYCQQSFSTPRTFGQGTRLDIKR and report it.
**A:** 25.8
